- System: OVCAR-3 ovarian
- protocol: NCI-60 one-dose screen, 48 h
- experimental conditions: 10 µM unless noted
This is part of a sample that, as a whole, favours compounds with a hit. Of some 83,000 tested, about 20% had one in any assay. Active and inactive are the calls of the source. How the source made its calls: active means growth percent below 10; inactive means the rest.
Possible outcomes: label 1 (active), label 0 (inactive)

{"compound": "Nc1ccc(Oc2c(F)c(F)c(Oc3ccc(N)cc3)c(F)c2F)cc1", "class name": "label 0"}
{"compound": "O=C(Nc1cccc(Cl)c1)Nc1cccc(Cl)c1", "class name": "label 0"}
{"compound": "c1ccc(COc2ccc(Nc3ncnc4c3cnn4-c3ccccc3)cc2)cc1", "class name": "label 0"}
{"compound": "FCc1ncc(-c2ccc(C(F)(F)F)cc2)c(NC2CCCCCC2)n1", "class name": "label 1"}
{"compound": "C[C@H]1c2cccc(O)c2C(O)=C2C(=O)[C@]3(O)C(O)=C(C(N)=O)C(=O)[C@@H](N(C)C)[C@@H]3[C@@H](O)[C@@H]21", "class name": "label 0"}
{"compound": "O=C1CSC(c2ccccc2O)N1c1nnc(Cn2ccnc2)o1 (stereo not given)", "class name": "label 0"}
{"compound": "NS(=O)(=O)c1ccc(-n2ncc3c(NC4CCCCC4)ncnc32)cc1", "class name": "label 0"}
{"compound": "CCOC(=O)c1cnc2c(C)cc(C)cc2c1NCCCN(C)C", "class name": "label 0"}
{"compound": "O=C1OC2(c3ccccc31)c1ccccc1-c1ccccc12", "class name": "label 0"}
{"compound": "CC[C@@H](c1ccc(O)c(O)c1)[C@@H](CC)c1ccc(O)c(O)c1", "class name": "label 0"}
